# solubility kinetic at 24 h, 100 µM per entry
METHOD: Kinetic aqueous solubility of compound in phosphate buffer at pH 7.4 at 100 uM at 20 degree C shaken for 24 hrs by HPLC analysis
Type: physicochemical
CONDITION_LABEL: read-out: Kinetic_solubility

| GIVEN_SMILES | solubility kinetic at 24 h, 100 µM |
| --- | --- |
| CCCCn1nc(-c2ccc3oc(N)nc3c2)c2c(Cl)nc(N)nc21 | < 1 µM |
| CC(C)n1nc(-c2ccc3oc(N)nc3c2)c2c(F)nc(N)nc21 | < 1 µM |
| COc1nc(N)nc2c1c(-c1ccc3oc(N)nc3c1)nn2C(C)C | < 1 µM |
| CC(C)n1nc(-c2ccc3oc(N)nc3c2)c2c(C(F)(F)F)nc(N)nc21 | < 1 µM |

Consider the additional compound presented here.
// sample `CC(C)n1nc(-c2ccc3oc(N)nc3c2)c2c(C#N)nc(N)nc21` , its solubility kinetic at 24 h, 100 µM was < 1 µM
